Reference for the values: PubChem BioAssay (NCI)

test: NCI Yeast Anticancer Drug Screen. Data for the bub3 strain (AID 167); settings: S. cerevisiae bub3 mutant strain, at 50.0 µM
This is part of a sample that, as a whole, favours compounds with a hit. Of some 79,000 tested, about 15% had one in any assay. Calls of active or inactive are those of the source. Cut-off read from the data, not from the text of the source: active = growth inhibition above about 70%; inactive = the rest.
Answer with one of the outcomes YES for active, NO for inactive

Known results for compounds:
stdin: For CCOP(=O)(CCP(=O)(OCC)OCC)OCC.C[CH2][Sn]([Cl])([Cl])[CH2]C , what call appears in the results of this test?
stdout: NO

stdin: For O=C1CC2(CCNCC2)C(=O)N1N1CCCCC1 , what call appears in the results of this test?
stdout: NO

stdin: I'd appreciate the recorded outcome for CC(CCOc1ccc2ccc(=O)oc2c1)C1=CC(=O)C(C)(C)O1 (stereo not drawn) from this test.
stdout: NO

stdin: GET /call?item= O=C(O)/C=C/C(=O)O.[Ni] returns the recorded outcome of this test.
stdout: NO

stdin: Short answer needed: outcome of this test for CCC(N)CBr (stereo not drawn) ?
stdout: NO

New cases:
stdin: Record request — test call for O=C1CN=C(c2ccccc2)c2ccncc2N1
stdout: NO

stdin: Called result for CCOP(=O)(OCC)N1C(C)C1C (stereo not drawn)
stdout: NO
